- Target Under Test: EAAT2 (Homo sapiens)
- Construct: expressed in transfected cells; host or cells: HEK293 (ATCC CRL-11268), transient transfection
- Experimental Details: Electrophysiology specificity experiment in transfected HEK293 cells, EAAT2
- Format: cell-based
- Conditions Used: apparent Ki, HEK293, internal solution 10 mM glutamate, mean ± SD; read-out: Ki EAAT2
Below is a list of entries, each paired with its recorded pKi value.
Scale: negative log10 of molar concentration, which is what pKi denotes.

Cc1ccccc1-c1ccc(C(=O)O[C@@H]2CN[C@H](C(=O)O)C2)cc1
5.89
O=C(O[C@@H]1CN[C@H](C(=O)O)C1)c1ccc(-c2ccccc2)cc1
5.14
O=C(O)[C@@H]1C[C@H](OCc2ccc(-c3ccccc3)cc2)CN1
5.68
O=C(O[C@@H]1CN[C@H](C(=O)O)C1)c1ccc(-c2ccc(F)cc2)cc1
5.89
N[C@@H](COC(=O)c1ccc(NC(=O)c2ccccc2)cc1)C(=O)O
4.96
Cc1ccccc1-c1ccc(C(=O)O[C@@H]2CN[C@H](C(=O)O)C2)cc1C
5.50
O=C(O[C@@H]1CN[C@H](C(=O)O)C1)c1ccc(-c2ccccc2)nc1
5.10
O=C(O[C@@H]1CN[C@H](C(=O)O)C1)c1ccc(-c2ccc(C(F)(F)F)cc2)cc1
6.01

For reference, reported pKi for `O=C(O)[C@@H]1C[C@H](NCc2ccc(-c3ccccc3)cc2)CN1` stands at 5.26

For reference, reported pKi for `O=C(O[C@@H]1CN[C@H](C(=O)O)C1)c1ccc(C(=O)c2ccccc2)cc1` stands at 4.81
